EXPERIMENT_DESCRIPTION: Plasma pharmacokinetics, Cycle 1 (LC-MS, non-compartmental)
Type: in vivo, human
CONDITION_DESCRIPTION: human, plasma, po, 3 mg, Cycle 1 Day 8; 3 mg daily oral; read-out: Half‐life, Median (range) (converted)
OUTCOME_MEASURE: half-life (h)
One number for each entry, in h.

Data request: Data request, read-out half-life, for `CC(C)n1nc(-c2ccc3oc(N)nc3c2)c2c(N)ncnc21`
Data returned: 11.3

----------
EXPERIMENT_DESCRIPTION: Plasma pharmacokinetics, Cycle 1 (LC-MS, non-compartmental)
Format: in vivo, human
CONDITION_DESCRIPTION: human, plasma, oral, 3 mg, after 7 days of dosing; read-out: trough concentration, range
OUTCOME_MEASURE: concentration at 7 days

Data request: What does the record list as concentration at 7 days for CC(C)n1nc(-c2ccc3oc(N)nc3c2)c2c(N)ncnc21 [sapanisertib] ?
Data returned: 0 to 41.6 ng/mL
